# target: SIX1 homeodomain (reference allele) (human, UniProt Q15475 108-198)
# Sequence: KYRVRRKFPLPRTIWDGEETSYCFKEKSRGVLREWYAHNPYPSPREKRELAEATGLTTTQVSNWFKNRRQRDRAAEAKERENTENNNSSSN
# experiment.description: universal protein binding microarray; Universal all-10-mer PBM (8x60K, AMADID 030236), 300 nM GST-tagged protein, Alexa Fluor 488 anti-GST; buffer, salt, pH and temperature not stated (as in Berger); high values mean tight binding
# assay.setup: protein: ivt; tags: N-terminal GST; dsDNA, one strand shown
Whole data set: some 33,000 sequences, median “e-score” near -0.053, cut for the highest 2% near 0.38. Many of the other results were omitted from the sample, so the highest values are more common in it than they were.
recorded.endpoint: binding signal
// return the numeric value with its unit appended

// fetch SIX1 homeodomain (reference allele) (human, UniProt Q15475 108-198) binding signal for `AGGGATAA`
0.292 E-score

// fetch SIX1 homeodomain (reference allele) (human, UniProt Q15475 108-198) binding signal for `TGGGATAA`
0.176 E-score

// fetch SIX1 homeodomain (reference allele) (human, UniProt Q15475 108-198) binding signal for `AATGGATA`
0.354 E-score

// fetch SIX1 homeodomain (reference allele) (human, UniProt Q15475 108-198) binding signal for `ATTATCTC`
0.203 E-score

// fetch SIX1 homeodomain (reference allele) (human, UniProt Q15475 108-198) binding signal for `CTGGGGTC`
0.164 E-score

// fetch SIX1 homeodomain (reference allele) (human, UniProt Q15475 108-198) binding signal for `GATCTTAC`
0.275 E-score

// fetch SIX1 homeodomain (reference allele) (human, UniProt Q15475 108-198) binding signal for `CGATCCAG`
0.212 E-score

// fetch SIX1 homeodomain (reference allele) (human, UniProt Q15475 108-198) binding signal for `AAGATCAA`
0.201 E-score

// fetch SIX1 homeodomain (reference allele) (human, UniProt Q15475 108-198) binding signal for `ACTATCCT`
0.318 E-score

// fetch SIX1 homeodomain (reference allele) (human, UniProt Q15475 108-198) binding signal for `ACCAGATC`
0.349 E-score

// fetch SIX1 homeodomain (reference allele) (human, UniProt Q15475 108-198) binding signal for `ATATCTCC`
0.424 E-score

// fetch SIX1 homeodomain (reference allele) (human, UniProt Q15475 108-198) binding signal for `GATATGGA`
0.423 E-score

// fetch SIX1 homeodomain (reference allele) (human, UniProt Q15475 108-198) binding signal for `ATATCTCA`
0.391 E-score

// fetch SIX1 homeodomain (reference allele) (human, UniProt Q15475 108-198) binding signal for `GATATGAC`
0.357 E-score

// fetch SIX1 homeodomain (reference allele) (human, UniProt Q15475 108-198) binding signal for `AATACTCT`
0.257 E-score

// fetch SIX1 homeodomain (reference allele) (human, UniProt Q15475 108-198) binding signal for `TGACCCCA`
0.198 E-score

// fetch SIX1 homeodomain (reference allele) (human, UniProt Q15475 108-198) binding signal for `ATACCCCG`
0.47 E-score

// fetch SIX1 homeodomain (reference allele) (human, UniProt Q15475 108-198) binding signal for `ACCCCCCG`
0.168 E-score

// fetch SIX1 homeodomain (reference allele) (human, UniProt Q15475 108-198) binding signal for `ATACCCCC`
0.454 E-score

// fetch SIX1 homeodomain (reference allele) (human, UniProt Q15475 108-198) binding signal for `CCTATCAC`
0.387 E-score

// fetch SIX1 homeodomain (reference allele) (human, UniProt Q15475 108-198) binding signal for `TAGGGATA`
0.41 E-score

// fetch SIX1 homeodomain (reference allele) (human, UniProt Q15475 108-198) binding signal for `ACTACGAT`
0.167 E-score

// fetch SIX1 homeodomain (reference allele) (human, UniProt Q15475 108-198) binding signal for `AATTAATA`
0.191 E-score

// fetch SIX1 homeodomain (reference allele) (human, UniProt Q15475 108-198) binding signal for `CATTATAC`
0.28 E-score

// fetch SIX1 homeodomain (reference allele) (human, UniProt Q15475 108-198) binding signal for `AGAATGAT`
0.216 E-score

// fetch SIX1 homeodomain (reference allele) (human, UniProt Q15475 108-198) binding signal for `ATGCACTA`
0.159 E-score

// fetch SIX1 homeodomain (reference allele) (human, UniProt Q15475 108-198) binding signal for `ATATCTAG`
0.285 E-score

// fetch SIX1 homeodomain (reference allele) (human, UniProt Q15475 108-198) binding signal for `GTATCTCA`
0.392 E-score

// fetch SIX1 homeodomain (reference allele) (human, UniProt Q15475 108-198) binding signal for `ATCATGCC`
0.244 E-score

// fetch SIX1 homeodomain (reference allele) (human, UniProt Q15475 108-198) binding signal for `GATACATC`
0.43 E-score

// fetch SIX1 homeodomain (reference allele) (human, UniProt Q15475 108-198) binding signal for `GGATCTCA`
0.298 E-score

// fetch SIX1 homeodomain (reference allele) (human, UniProt Q15475 108-198) binding signal for `GGTGTACA`
0.306 E-score

// fetch SIX1 homeodomain (reference allele) (human, UniProt Q15475 108-198) binding signal for `GGGGATAA`
0.311 E-score

// fetch SIX1 homeodomain (reference allele) (human, UniProt Q15475 108-198) binding signal for `ATAACATC`
0.165 E-score

// fetch SIX1 homeodomain (reference allele) (human, UniProt Q15475 108-198) binding signal for `CATACACC`
0.256 E-score

// fetch SIX1 homeodomain (reference allele) (human, UniProt Q15475 108-198) binding signal for `GATGCGGA`
0.199 E-score

// fetch SIX1 homeodomain (reference allele) (human, UniProt Q15475 108-198) binding signal for `AATAGTAT`
0.251 E-score

// fetch SIX1 homeodomain (reference allele) (human, UniProt Q15475 108-198) binding signal for `CATATCAG`
0.436 E-score

// fetch SIX1 homeodomain (reference allele) (human, UniProt Q15475 108-198) binding signal for `AATATCAC`
0.38 E-score

// fetch SIX1 homeodomain (reference allele) (human, UniProt Q15475 108-198) binding signal for `ACTATCAC`
0.279 E-score

// fetch SIX1 homeodomain (reference allele) (human, UniProt Q15475 108-198) binding signal for `TATCCTAA`
0.238 E-score

// fetch SIX1 homeodomain (reference allele) (human, UniProt Q15475 108-198) binding signal for `GGATTACA`
0.18 E-score

// fetch SIX1 homeodomain (reference allele) (human, UniProt Q15475 108-198) binding signal for `GAGGGATC`
0.397 E-score

// fetch SIX1 homeodomain (reference allele) (human, UniProt Q15475 108-198) binding signal for `AGGGATAT`
0.45 E-score
